Assay: LAP4-GFP expression modulators in yeast, confirmation, cell-based, cherry picks, flow cytometry, mother/daughter gates (AID 2271);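 also: ratio of sample to DMSO plate mean so 100% equals DMSO level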
Settings: S. cerevisiae LAP4-GFP strain, 3 h, at 10 µM, 100 means same as DMSO control
Active and inactive are the calls of the source.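 The calls were made as follows: active = GFP response above 150% of the DMSO control; inconclusive = fewer than 70 events counted in any yeast strain; inactive = the rest.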
Labels: YES for active, NO for inactive

COMPOUND	CLASS_LABEL
O=C(NC(=S)NNC(=O)[C@H]1C[C@@H]1c1ccccc1)c1cccc(F)c1	YES
N#Cc1nccnc1S(=O)(=O)c1cccs1	YES
N=C1S/C(=C\c2ccco2)C(=O)N1c1nccs1	YES
N#C/C(C(=O)Nc1ccc(Cl)cc1)=C(/S)Nc1ccccc1	NO
Cc1ccc(N2C(=O)C3C4C=CC(CNC(=S)Nc5ccc(F)cc5)(O4)C3C2=O)cc1 (configuration not stated)	NO
CCN(CC)c1ccc(/C=C/c2cccc[n+]2C)c(OC)c1	NO
Cc1cc(OCc2ccc(C(=O)NN=C3CCCC3)cc2)ccc1Cl	NO
CCN(CC)Cc1c(O)ccc2c(C)c(CC(=O)OC)c(=O)oc12	NO
CCOc1ccc(S(=O)(=O)n2ccnc2C)cc1	NO
CCn1c(/C=C/c2ccc([N+](=O)[O-])o2)nc2ccccc2c1=O	YES
O=C1c2ccccc2C(=O)C2OC12 (configuration not stated)	YES
O=S(=O)(c1ccccc1)c1ncc(C(F)(F)F)cc1O	NO

---

Test: RPL19A-GFP modulators, yeast TOR pathway, confirmation, cell-based, S. cerevisiae, flow cytometry, cherry picks, mother/daughter gates (AID 2270)
Conditions: S. cerevisiae RPL19A-GFP strain, 3 h, measured here: mother cell gate, at 10 µM, stronger effect = lower value, 100 = same GFP as DMSO wells
List of GFP response vs DMSO values.
READOUT_KIND: GFP response vs DMSO (%)

MOLECULE	VALUE_REPORTED
O=C(c1ccc([N+](=O)[O-])o1)N(Cc1nnc(-c2ccccc2Cl)o1)C1CC1	99.5
Clc1ccc(-n2cccc2)cn1	102
Cc1[nH]n(-c2ncc(-c3ccccc3)s2)c(=O)c1C(c1ccc(Cl)cc1)C(C#N)C#N (stereo unspecified)	91.6
O=C(Nc1nc(-c2ccc(Cl)cc2)cs1)c1cccnc1	98.3
O=C(N=Nc1c(O)[nH]c2ccccc12)c1ccco1	97.8
Oc1ccc(Br)cc1/C=N/Nc1ccccn1	83.8
O=C1C=CC(=O)N1c1ccc(Sc2ccc([N+](=O)[O-])cc2)cc1	61.1
Cc1ccc2[nH]c(C)c(/C=C/c3cc[n+](C)cc3)c2c1	117
COc1cccc(CC(=O)OC(C)C(=O)Nc2ncc(Cl)cc2Cl)c1 (stereo unspecified)	101
COc1ccccc1CNC(=O)CS(=O)Cc1nc(-c2ccc(OC)c(OC)c2)oc1C (stereo unspecified)	98
O=C(Nc1nc(-c2ccccc2)cs1)c1ccc(Br)o1	101

---

Parameter: aptamer binding inhibition. Scope: all listed entries.
Biological target: Beta-adrenergic receptor kinase 1 (Homo sapiens)
Assay: GRK2 binders displacing RNA aptamer, biochemical, validation, human GRK2, bead flow cytometry (AID 488806)
Conditions: bead-bound GRK2, FAM-aptamer displacement, at 10 µM, stronger effect = higher value
READOUT_KIND: aptamer binding inhibition (%)

COMPOUND	UNIT_TEXT	VALUE_REPORTED
CCOc1ccccc1OCCOc1ccc(F)cc1	%	0
c1ccc2c(CC3=NCCN3)cccc2c1	%	1
CCOc1ccc(C(=O)/C=C/c2cc(OC)c(OC)c(OC)c2)cc1	%	-3
C[C@]12CCC(=O)C=C1CC[C@@H]1[C@@H]2CC[C@@]2(C)[C@H]1CC[C@]2(O)C(=O)CO	%	4
COC(=O)c1cc(C(=O)NCCC(C)C)cc([N+](=O)[O-])c1	%	4
Cc1cc(C(C)(C)C)cc(C)c1CC1=NCCN1	%	1
CCOc1ccccc1C(=O)NCCC(=O)O	%	1
COC(=O)c1cc(OC)c(OC)cc1NC(=O)Nc1ccc(OC)cc1OC	%	0
COc1ccc(/C=C\C(=O)c2c(O)ccc3c(C)cc(=O)oc23)cc1OC	%	1
CCOc1ccc(CC2c3cc(OCC)c(OCC)cc3CCN2C(=O)CN2CCN(C)CC2)cc1OCC (stereo unspecified)	%	0
Cc1ccc(NCCC(=O)c2ccccc2)cc1Cl	%	2

---

Experiment: yeast V-ATPase proton transport modulators, S. cerevisiae, pHLuorin, HTS validation (AID 504600);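 also: plate controls were DMSO for no effect and reference compound for full effect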
Settings: S. cerevisiae pHLuorin cytosolic pH, at 10 µM
Active and inactive are the calls of the source. Cut-off read from the data, not from the text of the source: active = response above about 15%; inactive = the rest.
Outcome codes: active, inactive

COMPOUND	CLASS_LABEL
Cn1c(=O)[nH]c(=O)c2c1ncn2CCN1CCOCC1	inactive
CO[C@@H]1O[C@@H]2COC(c3ccccc3)O[C@@H]2[C@@H](OC)[C@@H]1O (stereo partly specified)	inactive
O=c1c(-c2ccc3c(c2)OCCO3)coc2cc(OC3OC(CO)C(O)C(O)C3O)ccc12 (stereo unspecified)	inactive
COc1cc(Cl)cc2c1Sc1ccccc1/C2=C/CCN(C)C	inactive
CC(CCc1ccccc1)NCC(O)c1ccc(O)c(C(N)=O)c1 (stereo unspecified)	inactive
O=C(CCCN1CC=C(n2c(=O)[nH]c3ccccc32)CC1)c1ccc(F)cc1	inactive
CC(=O)N=c1sc(S(N)(=O)=O)nn1C	inactive
CC(C)CC(=O)N(Cc1ccc(F)cc1)C1CCS(=O)(=O)C1 (stereo unspecified)	inactive
CC(C)c1ccc2[nH]c3c(c2c1)CCCC3=O	inactive
C=CCN1C(=O)c2oc3ccccc3c(=O)c2C1c1ccc(O)c(OC)c1 (stereo unspecified)	inactive
CC(=O)Nc1nc(CCC(C)C)cc2c1c(=O)oc1ccccc12	inactive
Oc1ccc(COCc2ccccc2)c2cccnc12	inactive
O=C(NCC1CCCCN1)c1cc(OCC(F)(F)F)ccc1OCC(F)(F)F (stereo unspecified)	inactive
COc1cc2c(cc1OC)C1(CCCCC1)CN(C)C2	inactive
O=C(O)CCSc1nc2ccccc2s1	inactive
C=C(C)c1nc2cc(OC)c(OC)cc2c(=O)o1	inactive
CCCCC/C=C\C[C@H](O)/C=C/c1cccc(C[C@H](O)CCCCO)n1	inactive
CCNCCC(CCC(C)C)c1ccc2c(c1)OCO2 (stereo unspecified)	inactive
C#CCN(C)Cc1ccccc1	inactive
CC1=CC(C)(C)N2C(=O)C3(NCCc4c3[nH]c3ccccc43)c3cc(C)cc1c32 (stereo unspecified)	inactive
Cc1ccc2c(c1)c1c(n2C)C(=O)CCC1	inactive
COc1ccc(/C=C\C(=O)c2c(O)ccc3c(C)cc(=O)oc23)cc1OC	inactive
O=c1c2ccccc2nc2n1-c1ccccc1CCC2	inactive
O=C(O)C1Sc2[nH]c(=O)sc2C2c3ccc(O)cc3OC(=O)C12 (stereo unspecified)	inactive
Cc1c(CCOC(=O)CC23CC4CC(CC(C)(C4)C2)C3)sc[n+]1Cc1ccc([N+](=O)[O-])cc1	inactive
N=C(N)c1ccc(OCCCCCOc2ccc(C(=N)N)cc2)cc1	inactive
CC(C)Oc1ccc(C(CC(=O)O)c2ccc(F)cc2)cc1 (stereo unspecified)	inactive
COc1ccc(CNC(=O)c2cc3c(=O)n4ccccc4nc3n(Cc3cccnc3)c2=N)cc1	inactive
CN(C)CCOC(C)(c1ccccc1)c1ccccn1 (stereo unspecified)	inactive
Cc1ccc(-n2ncc3c(Nc4cccc(C(=O)O)c4)ncnc32)cc1	inactive
CCOC(=O)c1cnc2ccc(C(=O)OC)cc2c1Nc1ccc2c(c1)OCCO2	inactive
CCOc1cccc(N2C(=O)CC(N(CCc3ccc(OC)c(OC)c3)C(=O)CC)C2=O)c1 (stereo unspecified)	inactive
COC(=O)CN1CC(=O)N(c2ccccc2)C1=S	inactive
COCCOC(=O)c1c(C)oc2ccc(OCc3cc(C(=O)OC)oc3C)cc12	active
O=C1OC(c2ccc(O)cc2)(c2ccc(O)cc2)c2ccccc21	inactive
COc1cc(C(=O)OCCCN(C)C)cc(OC)c1OC	inactive
C=CCc1cc(Cl)ccc1OCCOCCN(C)C	inactive
CC1=CC2(O)OCCN(CCO)C2=CC1=O (stereo unspecified)	inactive
Cc1cc(C(C)(C)C)cc(C)c1CC1=NCCN1	inactive
CC(C)NNC(=O)c1ccncc1	inactive
Cc1cccc(C)c1NS(=O)(=O)c1ccc(NC(=O)c2ccc(Cl)c([N+](=O)[O-])c2)cc1	inactive
COc1cc(OC)cc(C(=O)N[C@@H](CCSC)c2nc3ccccc3[nH]2)c1	inactive
CC(C)CC(=O)OC1C(N2CCOCC2)c2c(ccc(/C=C/C(=O)N3CCOCC3)c2O)OC1(C)C (stereo unspecified)	inactive
COc1cccc(C2CCCN2Cc2nc(CCC(C)C)no2)c1 (stereo unspecified)	inactive
C[C@@H]1C[C@H]2[C@@H]3CCC4=CC(=O)C=C[C@]4(C)[C@@]3(F)[C@@H](O)C[C@]2(C)[C@@]1(O)C(=O)COP(=O)(O)O	inactive
O=C(c1ccccc1F)c1cc2c(cc1[N+](=O)[O-])OCCO2	inactive

---

Experiment: LAP4-GFP expression modulators in yeast, confirmation, cell-based, cherry picks, flow cytometry, mother/daughter gates (AID 2271);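 also: ratio of sample to DMSO plate mean so 100% equals DMSO level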
Details: S. cerevisiae LAP4-GFP strain, 3 h, measured here: mother cell gate response, at 10 µM, stronger effect = higher value, 100 means same as DMSO control
Each entry below carries its recorded GFP response relative to DMSO.

MOLECULE	UNIT_TEXT	GFP response relative to DMSO
Cc1cc(C)c(S(C)(=O)=O)c(S(=O)(=O)c2ccc(Cl)cc2)n1	%	99.3
C=CCn1c(=O)c(C(=O)Nc2ccccc2O)c(O)c2ccccc21	%	106
Oc1c(Br)cc(Br)cc1C=Nc1ccc2c(c1)OCO2	%	174
CCN(CC)CCCN(Cc1cc2cc3c(cc2[nH]c1=O)OCO3)C(=S)Nc1ccccc1	%	131
O=[N+]([O-])c1ccc(-c2cn3nc(-c4ccccc4)c(-c4ccccc4)nc3n2)cc1	%	114
Cc1nn(C)c(C(=O)Sc2cccc(Cl)c2)c1[N+](=O)[O-]	%	130
CCC(C)(C)NC(=O)C(c1cccs1)N(CC1CCCO1)C(=O)Cn1nnc2ccccc21 (stereo not given)	%	99.5
Cc1c(O)ccc(C(=O)CN2CCN(c3ccc(F)cc3)CC2)c1O	%	101
O=C(CCCCCN1C(=O)c2cccc3cccc(c23)C1=O)N1CCOCC1	%	103
Nc1c(C(=O)c2cccs2)sc2nsc(SCCN3CCCCC3)c12	%	158
